# targetOrTestSystem: Estrogen receptor beta (Homo sapiens)
# assaySummary: OT_ER_ERbERb_0480: Odyssey Thera (OT) 8-hour HEK293T Protein-Complementation Assay for Estrogen Receptor-beta/-beta Homodimer (AID 2283357);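 note: active means signal gain over DMSO baseline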
Inconclusive results are not listed. Activity calls are given as the source filed them. Rule for the calls: active = hit-call score of the fitted dose curve at least 0.9, where 1 is the maximum; inconclusive = response in the unintended direction; inactive = score below 0.9.
Outcome codes: yes (active), no (inactive)

[
  {
    "moleculeSmiles": "O=C(c1ccccc1)c1ccccc1O",
    "className": "yes"
  },
  {
    "moleculeSmiles": "Cc1cc2nc3c(=O)[nH]c(=O)nc-3n(C[C@H](O)[C@H](O)[C@H](O)CO)c2cc1C",
    "className": "yes"
  },
  {
    "moleculeSmiles": "COC(=O)[C@]1(C)CCC[C@@]2(C)[C@H]1CC=C1C=C(C(C)C)CC[C@@H]12",
    "className": "no"
  },
  {
    "moleculeSmiles": "CO[Si](CCCNCCN)(OC)OC",
    "className": "no"
  },
  {
    "moleculeSmiles": "Sc1nc2ccccc2s1",
    "className": "no"
  },
  {
    "moleculeSmiles": "C[Si](C)(C)O[Si](C)(C)O[Si](C)(C)C",
    "className": "no"
  },
  {
    "moleculeSmiles": "c1ccc(CNc2ncnc3nc[nH]c23)cc1",
    "className": "no"
  },
  {
    "moleculeSmiles": "CCOC(=O)c1ccccc1",
    "className": "no"
  },
  {
    "moleculeSmiles": "Cc1cc(C)c(S(=O)(=O)O)cc1N=Nc1cc(S(=O)(=O)O)c2ccccc2c1O",
    "className": "no"
  },
  {
    "moleculeSmiles": "O=C(O)/C=C/C(=O)O",
    "className": "no"
  },
  {
    "moleculeSmiles": "CCC(C)=NO",
    "className": "no"
  },
  {
    "moleculeSmiles": "O=C(Oc1ccccc1)c1ccccc1",
    "className": "no"
  },
  {
    "moleculeSmiles": "CC(C)CC(=O)CC(C)C",
    "className": "no"
  }
]
